assayed-target: aldehyde reductase (ALR1) (Bos taurus, UniProt Q3ZCJ2)
Sequence (Q3ZCJ2 whole entry): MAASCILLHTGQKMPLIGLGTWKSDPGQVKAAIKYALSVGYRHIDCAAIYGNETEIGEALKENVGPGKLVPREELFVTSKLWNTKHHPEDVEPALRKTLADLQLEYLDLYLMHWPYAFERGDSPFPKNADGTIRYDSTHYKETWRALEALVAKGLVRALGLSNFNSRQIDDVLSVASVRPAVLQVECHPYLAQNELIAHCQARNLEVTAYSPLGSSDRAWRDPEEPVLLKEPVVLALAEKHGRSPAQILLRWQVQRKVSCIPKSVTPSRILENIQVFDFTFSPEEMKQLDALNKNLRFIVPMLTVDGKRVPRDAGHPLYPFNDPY
test-summary: Aldehyde reductase
Type: biochemical, calf
experimental-readout: ALR1 inhibitory activity, result in words

{"compound-structure": "COc1cccc(-n2c(-c3ccc(Br)cc3)cs/c2=N/N=C(/C)c2ccc3c(c2)NC(=O)CO3)c1", "data-value": "weak activity"}
{"compound-structure": "COc1cccc(-n2c(-c3ccc(Cl)cc3)cs/c2=N/N=C(/C)c2ccc3c(c2)NC(=O)CO3)c1", "data-value": "weak activity"}

* * *

assayed-target: aldehyde reductase (ALR1) (Bos taurus, UniProt Q3ZCJ2)
test-summary: Aldehyde reductase
Format: biochemical, calf
condition-summary: ALR1 IC50(μM) ± SEM, enzyme partially purified from calf kidneys; triplicate
experimental-readout: IC50 (µM)

{"compound": "CC(=N/N=c1\\scc(-c2ccc(Br)cc2)n1-c1cccc2ccccc12)C12CC3CC(CC(C3)C1)C2 [Compound 6b]", "data-value": 4.93}
{"compound": "O=[N+]([O-])c1ccc(-c2cs/c(=N/N=C\\c3c[nH]c4ccccc34)n2Cc2ccccc2)cc1 [Compound 8e]", "data-value": 2.94}
{"compound": "C/C(=N/N=c1/scc(-c2ccc(Cl)cc2)n1Cc1ccccc1)c1ccc2c(c1)OCCO2 [Compound 7i]", "data-value": 2.2}
{"compound": "CC(=N/N=c1\\scc(-c2ccc(Br)cc2)n1-c1ccccc1)C12CC3CC(CC(C3)C1)C2 [Compound 6a]", "data-value": 3.29}
{"compound": "CC(=N/N=c1\\scc(-c2ccc(Br)cc2)n1-c1ccccc1C)C12CC3CC(CC(C3)C1)C2 [Compound 6c]", "data-value": 4.07}
{"compound": "C/C(=N/N=c1/scc(-c2ccc(Cl)cc2)n1-c1ccccc1)c1ccc2c(c1)OCCO2 [Compound 7g]", "data-value": 3.14}
{"compound": "C/C(=N/N=c1/scc(-c2ccc(Cl)cc2)n1-c1ccc(F)cc1)c1ccc2c(c1)OCCO2 [Compound 7h]", "data-value": 2.94}
